system: E31 (patient-derived glioblastoma stem cells of proneural subtype); assay: surviving fraction (nuclei count normalised to DMSO); higher = more cells surviving (less toxic); conditions: 3000 nM; exposure time: 72 h
Where a name gives a salt, the structure may show the parent alone.
Tag: fulfilled if measured surviving fraction is not below 0.8, not fulfilled if it is.

Please review the following examples before continuing.
| compound | group.label |
| --- | --- |
| CN(C)CCN(Cc1ccc(Cl)cc1)c1ccccn1 [Chloropyramine hydrochloride] | fulfilled |
| CCCCCCC[N+](CC)(CC)CCCCc1ccc(Cl)cc1 [Clofilium tosylate] | not fulfilled |
| Cc1ncc(CO)c(CO)c1O [Pyridoxine hydrochloride] | fulfilled |
| CN1C(=O)CC(c2ccccc2)C1=O (stereo not drawn) [Phensuximide] | fulfilled |
| CC1CNc2c(cccc2S(=O)(=O)N[C@@H](CCCNC(=N)N)C(=O)N2CC[C@@H](C)C[C@@H]2C(=O)O)C1 (stereo partly drawn) [Argatroban] | fulfilled |
| NC1CCN(c2nc3c(cc2F)c(=O)c(C(=O)O)cn3-c2ccc(F)cc2F)C1 (stereo not drawn) [Tosufloxacin hydrochloride] | fulfilled |

Problem: Check if surviving fraction >= 0.8 (inclusive). Item: CC[N+](CC)(CC)CCOc1ccc(/C=C/c2ccccc2)cc1 [MG 624]
Solution: not fulfilled

Problem: Check if surviving fraction >= 0.8 (inclusive). Item: COc1cccc2c1C(=O)c1c(O)c3c(c(O)c1C2=O)C[C@@](O)(C(=O)CO)C[C@@H]3O[C@H]1C[C@H](N)[C@H](O[C@@H]2CCCCO2)[C@H](C)O1 [Pirarubicin]
Solution: not fulfilled

====

tested on: FT3469 (normal neural stem cell line); test: phenotypic distance (Euclidean, principal components) from DMSO controls (arbitrary units); higher = stronger morphological change; settings: 333.3 nM; exposure time: 72 h
reported.metric: phenotypic distance
Give the value as a plain number.

| compound | study.system | reading |
| --- | --- | --- |
| COc1cc(/C=C/C(=O)N2CCC=CC2=O)cc(OC)c1OC | FT3469 | 1.07 |
| Cc1[nH]nc(C(F)(F)F)c1Cc1sc2c(c1C(=O)N1C[C@](C)(O)CO1)c(=O)n(C)c(=O)n2C(C)C | FT3469 | 1.33 |
| CC(C)C[C@H](NC(=O)[C@H](CCc1ccccc1)NC(=O)CN1CCOCC1)C(=O)N[C@@H](Cc1ccccc1)C(=O)N[C@@H](CC(C)C)C(=O)[C@@]1(C)CO1 | FT3469 | 7.43 |
| Clc1ccc(CSC(Cn2ccnc2)c2ccc(Cl)cc2Cl)cc1 (stereo not given) [Sulconazole nitrate] | FT3469 | 1.06 |

Problem: Name the recorded phenotypic distance for CC(=O)O[C@H]1C[C@H](O[C@H]2[C@@H](O)C[C@H](O[C@H]3[C@@H](O)C[C@H](O[C@H]4CC[C@@]5(C)[C@H](CC[C@@H]6[C@@H]5C[C@@H](O)[C@]5(C)[C@@H](C7=CC(=O)OC7)CC[C@]65O)C4)O[C@@H]3C)O[C@@H]2C)O[C@H](C)[C@H]1O[C@@H]1O[C@H](CO)[C@@H](O)[C@H](O)[C@H]1O [Lanatoside C] .
Solution: 3.47

====

system: E31; experiment: surviving fraction (nuclei count normalised to DMSO); higher = more cells surviving (less toxic); conditions: 12.3 nM; exposure time: 72 h
Where a name gives a salt, the structure may show the parent alone.
reported.metric: surviving fraction
Give the value as a plain number.

Worked set:
| molecule | surviving fraction |
| --- | --- |
| OCCN1CCN(CCCN2c3ccccc3Sc3ccc(C(F)(F)F)cc32)CC1 [Fluphenazine dihydrochloride] | 1.18 |
| CC(C)C(=O)OCC(=O)[C@@]12O[C@H](C3CCCCC3)O[C@@H]1C[C@H]1[C@@H]3CCC4=CC(=O)C=C[C@]4(C)[C@H]3[C@@H](O)C[C@@]12C [Ciclesonide] | 1.11 |

Problem: Name the recorded surviving fraction for CCCCCCNC(=O)n1cc(F)c(=O)[nH]c1=O [Carmofur] .
Solution: 0.903

Problem: Name the recorded surviving fraction for CCC(=O)OCC(=O)[C@@]1(OC(=O)CC)[C@H](C)C[C@H]2[C@H]3[C@H]([C@@H](O)C[C@@]21C)[C@@]1(C)C=CC(=O)C=C1C[C@H]3Cl [Alclometasone dipropionate] .
Solution: 1.46

Problem: Name the recorded surviving fraction for CN1[C@@H]2CC[C@H]1CC(OC(=O)c1c[nH]c3ccccc13)C2 (some centres not stated) [3-Tropanyl-indole-3-carboxylate hydrochloride] .
Solution: 0.975

Problem: Name the recorded surviving fraction for O=C1CCc2cc(OCCCCc3nnnn3C3CCCCC3)ccc2N1 [Cilostazol] .
Solution: 1.04

Problem: Name the recorded surviving fraction for CC[N+](CC)(CC)CCOc1ccc(/C=C/c2ccccc2)cc1 [MG 624] .
Solution: 1.02

====

test system: E21 (patient-derived glioblastoma stem cells of mesenchymal subtype); experiment: surviving fraction (nuclei count normalised to DMSO); higher = more cells surviving (less toxic); conditions: 37 nM; exposure time: 72 h
In this section, each of the compounds is paired with its reported surviving fraction.
Give the value as a plain number.

| structure.as.smiles | reading |
| --- | --- |
| Nc1ccn([C@@H]2O[C@H](CO)[C@@H](O)[C@@H]2O)c(=O)n1 | 0.649 |

Problem: Name the recorded surviving fraction for CN1CCC(NC(=O)c2cc(-c3c(O)cc(O)cc3Oc3ccc([N+](=O)[O-])cc3)on2)CC1 .
Solution: 0.926

Problem: Name the recorded surviving fraction for COc1cc2c(NC3CCN(C(C)C)CC3)nc(C3CCCCC3)nc2cc1OCCCN1CCCC1 .
Solution: 1.11

Problem: Name the recorded surviving fraction for Cc1[nH]nc(C(F)(F)F)c1Cc1sc2c(c1C(=O)N1C[C@](C)(O)CO1)c(=O)n(C)c(=O)n2C(C)C .
Solution: 1.01

====

tested on: FT3469; assay: phenotypic distance (Euclidean, principal components) from DMSO controls (arbitrary units); higher = stronger morphological change; conditions: 3000 nM; exposure time: 72 h
Counter-ions that a name gives are not always drawn.
Tag: MET if measured phenotypic distance is not below 1, NOT MET if it is.

Please review the following examples before continuing.
| compound | group.label |
| --- | --- |
| COc1ccc2[nH]c([S+]([O-])Cc3ncc(C)c(OC)c3C)nc2c1 (stereo unspecified) | NOT MET |
| CCCSc1ccc2[nH]c(NC(=O)OC)nc2c1 | MET |
| COc1cc2c(NC3CCN(C(C)C)CC3)nc(C3CCCCC3)nc2cc1OCCCN1CCCC1 | MET |
| C=C[C@H]1CN2CC[C@H]1C[C@@H]2[C@@H](O)c1ccnc2ccc(OC)cc12 [Quinidine hydrochloride monohydrate] | NOT MET |
| CC[C@@]1(O)C(=O)OCc2c1cc1n(c2=O)Cc2cc3c(CN(C)C)c(O)ccc3nc2-1 | MET |
| Cc1c(-c2ccc(-c3ccccc3F)cc2)nc2ccc(F)cc2c1C(=O)O [Brequinar sodium salt hydrate] | MET |
| c1ccc2c(c1)[I+]c1ccccc1-2 [Diphenyleneiodonium chloride] | MET |
| CN1[C@@H]2CC[C@H]1CC(OC(=O)c1c[nH]c3ccccc13)C2 (stereo partly specified) [3-Tropanyl-indole-3-carboxylate hydrochloride] | NOT MET |

Problem: Check if phenotypic distance >= 1 (inclusive). Item: NCCCP(=O)(O)O
Solution: MET

Problem: Check if phenotypic distance >= 1 (inclusive). Item: NC1CCN(c2nc3c(cc2F)c(=O)c(C(=O)O)cn3-c2ccc(F)cc2F)C1 (stereo unspecified) [Tosufloxacin hydrochloride]
Solution: NOT MET

Problem: Check if phenotypic distance >= 1 (inclusive). Item: Cc1cc(Nc2cc(CN3CCOCC3)c3nc(C)c(Cc4ccc(Cl)cc4F)n3n2)n[nH]1
Solution: MET

Problem: Check if phenotypic distance >= 1 (inclusive). Item: O=C(Nc1ccc([N+](=O)[O-])cc1Cl)c1cc(Cl)ccc1O [Niclosamide]
Solution: MET

Problem: Check if phenotypic distance >= 1 (inclusive). Item: C[C@]12CC[C@H](O)C[C@H]1CC[C@@H]1[C@@H]2C[C@@H](O)[C@]2(C)[C@@H](C3=CC(=O)OC3)CC[C@]12O
Solution: MET

Problem: Check if phenotypic distance >= 1 (inclusive). Item: CC[N+](CC)(CC)CCOc1ccc(/C=C/c2ccccc2)cc1
Solution: MET

Problem: Check if phenotypic distance >= 1 (inclusive). Item: C/C(=C\c1csc(C)n1)[C@@H]1C[C@@H]2O[C@]2(C)CCC[C@H](C)[C@H](O)[C@@H](C)C(=O)C(C)(C)[C@@H](O)CC(=O)N1 [Ixabepilone]
Solution: MET

====

test system: FT3469; assay: phenotypic distance (Euclidean, principal components) from DMSO controls (arbitrary units); higher = stronger morphological change; settings: 111.1 nM; exposure time: 72 h;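 note: cell Painting imaging in 384-well plates, CellProfiler features reduced to at least 20 principal components, Euclidean distance versus same-plate DMSO vehicle wells (0.1% v/v), median over six images per well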
Tag: Y if measured phenotypic distance is not below 1, N if it is.

| molecule | group.label |
| --- | --- |
| COc1ccc2c(c1)CC[C@@H]1[C@@H]2CC[C@]2(C)[C@@H](NCCCCCCN3C(=O)CCC3=O)CC[C@@H]12 | N |
| COC(=O)C[C@](O)(CCCC(C)(C)O)C(=O)O[C@@H]1C(OC)=C[C@]23CCCN2CCc2cc4c(cc2[C@H]13)OCO4 [Homoharringtonine] | Y |
| CC[C@@]1(O)C(=O)OCc2c1cc1n(c2=O)Cc2cc3cc(O)ccc3nc2-1 [Hydroxy Camptothecine] | Y |

Problem: Check if phenotypic distance >= 1 (inclusive). Item: CC(C)(C)C1CCN(C(=O)n2ncc(C(O)(c3ccccc3)c3ccccc3)n2)CC1 [ML211]
Solution: N

Problem: Check if phenotypic distance >= 1 (inclusive). Item: CN1C(=O)OC(C)(C)C1=O [Trimethadione]
Solution: N

Problem: Check if phenotypic distance >= 1 (inclusive). Item: CCn1cc(-c2ccnc3[nH]c(-c4cccc(CN(C)C)c4)cc23)c(-c2ccc(NC(=O)N(C)C)cc2)n1
Solution: Y
